Catalogue of pKd readings, one per entry.
# tested-system: T1, Human SIRPαV2 (CAA71403.1), Extracellular Domain + His-Tag (human, UniProt P78324 31-373)
# T1 construct: also called huSIRPαV2; hSIRPαV2; not shown: His-Tag
# T1 sequence (P78324 other isoform, or with tags, fused parts or gaps): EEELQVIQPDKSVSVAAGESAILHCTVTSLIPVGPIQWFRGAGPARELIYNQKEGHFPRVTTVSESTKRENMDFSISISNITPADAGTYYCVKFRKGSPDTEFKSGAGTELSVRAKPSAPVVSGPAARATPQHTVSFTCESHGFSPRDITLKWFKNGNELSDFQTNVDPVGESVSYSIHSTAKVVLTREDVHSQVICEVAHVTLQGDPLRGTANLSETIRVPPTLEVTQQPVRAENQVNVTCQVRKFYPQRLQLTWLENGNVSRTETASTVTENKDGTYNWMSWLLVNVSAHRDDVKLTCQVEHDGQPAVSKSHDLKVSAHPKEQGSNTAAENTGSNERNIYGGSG
# protocol-description: SPR, antibody captured on Protein A/G, ECD-His analyte, 1:1 fit
# Description: The binding kinetics of anti-SIRPα antibodies to various SIRPα analytes are determined by surface plasmon resonance (SPR) using a Biacore 8K+(Cytiva). 1×HBS-EP+(Cytiva) is used as running buffer and for all the dilutions unless stated otherwise. […]
Scale note: pKd = -log10(concentration in M).

{"columns": ["binder", "value-kind", "result-number"],
 "data": [
  ["Antibody A12 (antibody, human IgG1, kappa, L234A L235A, V domains shown) VH: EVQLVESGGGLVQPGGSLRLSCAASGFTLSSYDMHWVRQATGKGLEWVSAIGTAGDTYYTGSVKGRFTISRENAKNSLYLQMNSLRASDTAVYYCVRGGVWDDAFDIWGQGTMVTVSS VL: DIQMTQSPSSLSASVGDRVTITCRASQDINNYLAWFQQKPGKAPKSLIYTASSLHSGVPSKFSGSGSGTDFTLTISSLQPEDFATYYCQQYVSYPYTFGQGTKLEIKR", "pKd", 8.05]
]}

Recall and state the measured pKd for Antibody E17 (antibody, human IgG1, kappa, L234A L235A, V domains shown) VH: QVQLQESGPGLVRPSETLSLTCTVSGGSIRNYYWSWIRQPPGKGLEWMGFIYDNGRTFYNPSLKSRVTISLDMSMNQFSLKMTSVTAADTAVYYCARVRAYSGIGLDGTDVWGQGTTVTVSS VL: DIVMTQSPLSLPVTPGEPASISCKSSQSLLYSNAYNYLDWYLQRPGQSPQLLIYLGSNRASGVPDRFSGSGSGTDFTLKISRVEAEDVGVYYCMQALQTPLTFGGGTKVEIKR .
9.10

Recall and state the measured pKd for Antibody E16 (antibody, human IgG1, kappa, L234A L235A, V domains shown) VH: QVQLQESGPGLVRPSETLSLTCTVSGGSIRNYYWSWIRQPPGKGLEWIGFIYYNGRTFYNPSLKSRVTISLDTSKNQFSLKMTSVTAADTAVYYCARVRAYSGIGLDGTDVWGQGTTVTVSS VL: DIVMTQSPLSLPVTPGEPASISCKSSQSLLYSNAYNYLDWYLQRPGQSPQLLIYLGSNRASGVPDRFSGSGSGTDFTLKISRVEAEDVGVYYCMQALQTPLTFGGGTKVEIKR .
8.71

Recall and state the measured pKd for Antibody A9 (antibody, human IgG1, kappa, L234A L235A, V domains shown) VH: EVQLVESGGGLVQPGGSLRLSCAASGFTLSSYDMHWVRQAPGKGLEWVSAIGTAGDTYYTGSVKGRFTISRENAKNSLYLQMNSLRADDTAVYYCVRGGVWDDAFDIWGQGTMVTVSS VL: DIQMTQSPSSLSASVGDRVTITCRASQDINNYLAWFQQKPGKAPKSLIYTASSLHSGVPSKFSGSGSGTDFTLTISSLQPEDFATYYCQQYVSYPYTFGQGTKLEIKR .
8.08

Recall and state the measured pKd for Antibody E9 (antibody, human IgG1, kappa, L234A L235A, V domains shown) VH: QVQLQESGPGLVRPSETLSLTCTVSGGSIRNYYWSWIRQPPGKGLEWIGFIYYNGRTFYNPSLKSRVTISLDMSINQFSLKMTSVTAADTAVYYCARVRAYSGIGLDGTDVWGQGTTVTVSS VL: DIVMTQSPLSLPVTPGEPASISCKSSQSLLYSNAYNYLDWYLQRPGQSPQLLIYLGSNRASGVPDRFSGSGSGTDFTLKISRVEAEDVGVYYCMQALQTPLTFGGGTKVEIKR .
9.03
